Numbers sourced from ChEMBL document CHEMBL1124910.

- assayed system: Neutrophil elastase (Homo sapiens, UniProt P08246)
- Sequence (P08246 whole entry): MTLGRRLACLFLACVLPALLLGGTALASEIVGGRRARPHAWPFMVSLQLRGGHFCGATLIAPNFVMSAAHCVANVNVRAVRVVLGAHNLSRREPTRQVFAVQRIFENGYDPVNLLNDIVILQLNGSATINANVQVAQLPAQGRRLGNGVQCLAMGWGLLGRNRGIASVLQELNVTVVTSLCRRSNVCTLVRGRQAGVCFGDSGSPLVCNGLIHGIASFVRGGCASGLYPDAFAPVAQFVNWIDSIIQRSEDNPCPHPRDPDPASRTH
- assay info: Inhibitory concentration which is required to cause 50% inhibition of human leukocyte elastase (HLE) enzyme
Each entry below lists one item and its recorded pIC50 value.
Note: pIC50 values are expressed as the negative base-10 logarithm of concentration in M.

Using the record for CO[C@H]1C(=O)N2C(C(=O)OC(C)(C)C)=C(COC(C)=O)CS(=O)(=O)[C@H]12 , report its pIC50. 6.00

Consider the compound shown here: CC(=O)OCC1=C(C(=O)OC(C)(C)C)N2C(=O)[C@H](OC(=O)COc3ccccc3)[C@H]2S(=O)(=O)C1 What is its recorded pIC50? 5.22

May I ask what pIC50 has been recorded for CCC(=O)O[C@H]1C(=O)N2C(C(=O)OC(C)(C)C)=C(COC(C)=O)CS[C@H]12 ? 4.44

----------
- assayed system: Neutrophil elastase (Homo sapiens, UniProt P08246)
- assay info: Inhibitory concentration which is required to cause 50% inhibition of human leukocyte elastase (HLE) enzyme
This listing pairs compounds with measured IC50.

# count of solved cases: 7
CC(=O)OCC1=C(C(=O)OC(C)(C)C)N2C(=O)[C@H](Oc3ccccc3)[C@H]2S(=O)(=O)C1	1 µM
CCO[C@H]1C(=O)N2C(C(=O)OC(C)(C)C)=C(COC(C)=O)C[S+]([O-])[C@H]12 (stereo in doubt; 7b)	> 40 µM
CC(=O)OCC1=C(C(=O)OC(C)(C)C)N2C(=O)[C@H](NC(=O)Cc3cccs3)[C@H]2S(=O)(=O)C1	> 40 µM
CC(=O)OCC1=C(C(=O)OC(C)(C)C)N2C(=O)[C@H](OCCc3ccccc3)[C@H]2S(=O)(=O)C1	5 µM
CCC(=O)O[C@H]1C(=O)N2C(C(=O)OC(C)(C)C)=C(COC(C)=O)CS(=O)(=O)[C@H]12	10 µM
CCC(CC)O[C@H]1C(=O)N2C(C(=O)OC(C)(C)C)=C(COC(C)=O)CS(=O)(=O)[C@H]12	> 40 µM
CC(=O)OCC1=C(C(=O)OC(C)(C)C)N2C(=O)[C@@H](N)[C@H]2SC1	> 40 µM

We next turn to a different compound, shown below.
What does the record list as IC50 for CC(=O)OCC1=C(C(=O)OC(C)(C)C)N2C(=O)C[C@H]2S(=O)(=O)C1 ? > 40 µM

----------
- assayed system: Serine protease 1 (Bos taurus)
- Sequence (P00760 whole entry): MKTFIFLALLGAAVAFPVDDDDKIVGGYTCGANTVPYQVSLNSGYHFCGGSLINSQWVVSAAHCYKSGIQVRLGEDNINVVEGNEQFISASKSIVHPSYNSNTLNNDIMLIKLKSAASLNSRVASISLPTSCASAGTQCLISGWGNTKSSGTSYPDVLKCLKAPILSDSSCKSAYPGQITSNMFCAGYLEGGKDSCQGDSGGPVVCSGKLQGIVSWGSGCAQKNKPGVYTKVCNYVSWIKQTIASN
- assay info: Inhibitory concentration which is required to cause 50% inhibition of bovine trypsin (Trp)
pIC50: −log10 of the molar value.
measured endpoint: pIC50

Given CC(=O)OCC1=C(C(=O)OC(C)(C)C)N2C(=O)[C@H](OC=O)[C@H]2S(=O)(=O)C1 , state its recorded pIC50. < 4.40

----------
Measured pIC50 of individual entries
- assayed system: Neutrophil elastase (Homo sapiens, UniProt P08246)
- assay info: Inhibitory concentration which is required to cause 50% inhibition of human leukocyte elastase (HLE) enzyme
The scale used: pIC50 is minus the common logarithm of the concentration in molar units.

Example results:
CC(=O)OCC1=C(C(=O)OC(C)(C)C)N2C(=O)[C@H](OC=O)[C@H]2S(=O)(=O)C1	6.52
CC(=O)OCC1=C(C(=O)OC(C)(C)C)N2C(=O)[C@H](OC(C)=O)[C@H]2S(=O)(=O)C1	5.22

Turning now to a further record.
Which pIC50 is reported for this molecule? CCO[C@H]1C(=O)N2C(C(=O)OC(C)(C)C)=C(COC(C)=O)C[S+]([O-])[C@H]12 (stereo in doubt; 6b) 4.40

----------
- assayed system: Chymotrypsinogen A (Bos taurus, UniProt P00766)
- assay info: Inhibitory concentration which is required to cause 50% inhibition of alpha-chymotrypsin enzyme
measured endpoint: IC50 (µM)
# value in µM; strip the unit string

IC50 for CC(=O)OCC1=C(C(=O)OC(C)(C)C)N2C(=O)[C@H](OC(=O)Cc3ccccc3)[C@H]2S(=O)(=O)C1 ? 4

----------
- assayed system: Neutrophil elastase (Homo sapiens) (UniProt P08246)
- Sequence (P08246 whole entry): as the sequence (P08246 whole entry) above
K obs / 1 strictly under 1000 M⁻¹ s⁻¹ means Condition met; at 1000 M⁻¹ s⁻¹ or over means Condition not met.

The examples below pair each entry with its known result.
CC(=O)OCC1=C(C(=O)OC(C)(C)C)N2C(=O)[C@H](Oc3ccccc3)[C@H]2S(=O)(=O)C1	Condition met
CC(=O)OCC1=C(C(=O)OC(C)(C)C)N2C(=O)[C@H](OC(C)=O)[C@H]2S(=O)(=O)C1	Condition met
CCC(=O)O[C@H]1C(=O)N2C(C(=O)OC(C)(C)C)=C(COC(C)=O)CS(=O)(=O)[C@H]12	Condition met
CC(=O)OCC1=C(C(=O)OC(C)(C)C)N2C(=O)[C@H](Cl)[C@H]2S(=O)(=O)C1	Condition not met
CNC(=O)O[C@H]1C(=O)N2C(C(=O)OC(C)(C)C)=C(COC(C)=O)CS(=O)(=O)[C@H]12	Condition met

Next, consider the following molecule.
Decide: K obs / 1 of CO[C@H]1C(=O)N2C(C(=O)OC(C)(C)C)=C(COC(C)=O)CS(=O)(=O)[C@H]12 strictly below 1000 M⁻¹ s⁻¹? Condition not met

----------
- assayed system: Neutrophil elastase (Homo sapiens) (UniProt P08246)
- assay info: Second-order rate constant (Kobs/[I]) for inactivation was determined
measured endpoint: K obs / 1 (M⁻¹ s⁻¹)
The figure you give is taken to be in M⁻¹ s⁻¹; do not add the unit.

Worked cases, answers included:
CO[C@H]1C(=O)N2C(C(=O)OC(C)(C)C)=C(COC(C)=O)C[S@+]([O-])[C@H]12	500
CC(=O)OCC1=C(C(=O)OC(C)(C)C)N2C(=O)[C@H](NC=O)[C@H]2S(=O)(=O)C1	1200
CC(=O)OCC1=C(C(=O)OC(C)(C)C)N2C(=O)[C@H](OC=O)[C@H]2S(=O)(=O)C1	59000

Fill blank: measured K obs / 1 of the compound COC(=O)N[C@H]1C(=O)N2C(C(=O)OC(C)(C)C)=C(COC(C)=O)CS(=O)(=O)[C@H]12 is ____. 1600

----------
- assayed system: Chymotrypsinogen A (Bos taurus, UniProt P00766)
- assay info: Inhibitory concentration which is required to cause 50% inhibition of bovine alpha-chymotrypsin (ChT)
pIC50: −log10 of the molar value.
measured endpoint: pIC50

State its pIC50 on Chymotrypsinogen A (Bos taurus, UniProt P00766): CC(=O)OCC1=C(C(=O)OC(C)(C)C)N2C(=O)[C@H](OC(C)=O)[C@H]2S(=O)(=O)C1 < 4.40

----------
- assayed system: Neutrophil elastase (Homo sapiens, UniProt P08246)
- assay info: Inhibitory concentration which is required to cause 50% inhibition of human leukocyte elastase (HLE) enzyme
measured endpoint: IC50

Example entries begin here.
CCO[C@H]1C(=O)N2C(C(=O)OC(C)(C)C)=C(COC(C)=O)CS[C@H]12	> 40 µM
CO[C@H]1C(=O)N2C(C(=O)OC(C)(C)C)=C(COC(C)=O)C[S@+]([O-])[C@H]12	4 µM
CCCO[C@H]1C(=O)N2C(C(=O)OC(C)(C)C)=C(COC(C)=O)CS[C@H]12	> 40 µM
CCCCO[C@H]1C(=O)N2C(C(=O)OC(C)(C)C)=C(COC(C)=O)CS(=O)(=O)[C@H]12	> 40 µM
CC(=O)OCC1=C(C(=O)OC(C)(C)C)N2C(=O)[C@H](F)[C@H]2SC1	20 µM
CCCCO[C@H]1C(=O)N2C(C(=O)OC(C)(C)C)=C(COC(C)=O)CS[C@H]12	> 40 µM

Which value of IC50 has been reported for CO[C@H]1C(=O)N2C(C(=O)OC(C)(C)C)=C(COC(C)=O)C[S@@+]([O-])[C@H]12 in the records? > 40 µM

Give its IC50 value. Item: COC(=O)N[C@H]1C(=O)N2C(C(=O)OC(C)(C)C)=C(COC(C)=O)CS(=O)(=O)[C@H]12 4 µM

----------
We begin with a simple list: items and their reported IC50.
- assayed system: Neutrophil elastase (Homo sapiens)
- assay info: Inhibitory concentration which is required to cause 50% inhibition of human leukocyte elastase (HLE) enzyme
Dear colleague, please return just the value in µM, with no unit written.

CC(=O)OCC1=C(C(=O)OC(C)(C)C)N2C(=O)[C@H](Cl)[C@H]2SC1	2
CC(=O)OCC1=C(C(=O)OC(C)(C)C)N2C(=O)[C@H](OC(=O)Cc3ccccc3)[C@H]2S(=O)(=O)C1	10
CC(=O)OCC1=C(C(=O)OC(C)(C)C)N2C(=O)[C@H](NC=O)[C@H]2S(=O)(=O)C1	4

Let us examine a further case.
So what does the record say about IC50 for O=C(OCc1ccccc1)[C@H]1/C(=C/CO)O[C@@H]2CC(=O)N21 ? 4

----------
- assayed system: Neutrophil elastase (Homo sapiens, UniProt P08246)
- assay info: Inhibitory concentration which is required to cause 50% inhibition of human leukocyte elastase (HLE) enzyme
Measured log10 IC50, listed per entry.
On a log10 scale: recorded IC50, unit µM.

A selection of reference data follows.
CCC(C)O[C@H]1C(=O)N2C(C(=O)OC(C)(C)C)=C(COC(C)=O)CS(=O)(=O)[C@H]12 (stereo partly drawn)	1.45
CC(=O)OCC1=C(C(=O)OC(C)(C)C)N2C(=O)[C@H](Cl)[C@H]2S(=O)(=O)C1	-1.40

Now for the molecule whose log10 IC50 we want.
Consider the molecule CC(=O)OCC1=C(C(=O)OC(C)(C)C)N2C(=O)[C@H](F)[C@H]2S(=O)(=O)C1 and give its measured log10 IC50. -1.22
